# measurement_target: PqsBC (Pseudomonas aeruginosa, UniProt Q9I4X1, V299N)
# assay_procedure: biochemical
measurement_type: Kd

{"columns": ["compound", "recorded_result"],
 "data": [
  ["CC(=O)c1ccccc1N", "> 1000 µM"],
  ["Nc1ccccc1C(=O)CC(=O)O [2-aminobenzoylacetate]", "> 1000 µM"]
]}

###

# measurement_target: PqsBC (Pseudomonas aeruginosa, UniProt Q9I4X1, H269A)
# assay_procedure: biochemical
Examples of compounds with documented Kd follow.

{"columns": ["compound", "Kd [µM]"],
 "data": [
  ["Nc1ccccc1C(=O)CC(=O)O [2-aminobenzoylacetate]", 198],
  ["CC(=O)c1ccccc1N [2-aminoacetophenone]", 117]
]}
